- EXPERIMENTAL_TARGET: full-length beta-Catenin (Uniprot ID P35222) (Homo sapiens (Human)) (UniProt P35222)
- Sequence (P35222 whole entry): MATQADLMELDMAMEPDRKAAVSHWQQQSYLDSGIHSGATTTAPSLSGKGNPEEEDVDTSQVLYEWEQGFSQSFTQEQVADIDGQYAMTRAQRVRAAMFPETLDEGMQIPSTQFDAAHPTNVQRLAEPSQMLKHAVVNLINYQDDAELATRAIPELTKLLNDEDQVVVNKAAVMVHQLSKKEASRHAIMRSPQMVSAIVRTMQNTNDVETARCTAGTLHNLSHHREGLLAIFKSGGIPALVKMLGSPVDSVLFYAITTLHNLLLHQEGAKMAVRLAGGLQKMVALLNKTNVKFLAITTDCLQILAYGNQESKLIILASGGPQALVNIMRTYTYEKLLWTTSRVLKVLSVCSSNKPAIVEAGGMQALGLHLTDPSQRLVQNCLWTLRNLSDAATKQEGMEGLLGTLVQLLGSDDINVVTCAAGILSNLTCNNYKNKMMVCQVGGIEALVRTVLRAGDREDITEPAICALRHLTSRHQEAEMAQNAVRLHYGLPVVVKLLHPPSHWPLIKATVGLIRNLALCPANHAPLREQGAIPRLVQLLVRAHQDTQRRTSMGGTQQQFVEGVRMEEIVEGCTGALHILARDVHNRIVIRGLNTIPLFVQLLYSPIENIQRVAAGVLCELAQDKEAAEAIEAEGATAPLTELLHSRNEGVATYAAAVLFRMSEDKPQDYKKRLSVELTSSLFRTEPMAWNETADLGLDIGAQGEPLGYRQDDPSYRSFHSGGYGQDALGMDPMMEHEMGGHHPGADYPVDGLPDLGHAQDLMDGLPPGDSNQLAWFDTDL
- TEST: fluorescence polarization competition; displacement of 5FAM-TCF4(10-53) from full-length beta-catenin
Starred links: 1 amine or outer side, 2 acyl side, 3 side chain; linkers in the order of their positions; H or OH if unused. Positions of bridges follow the written chain, without caps; N, C: chain ends. Non-standard residues stand in square brackets, D forms with d. Primed or numbered codes have the meaning given here. PyrS2″ = (S)-3-amino-1-((pent-4-en-1-yloxy)carbonyl)pyrrolidine-3-carboxylic acid (stapling residue), C=CCCCOC(=O)N1CC[C@@](N[*:1])(C(=O)[*:2])C1; B5(5) = 2,2-bis(4-pentenyl)glycine, 2-amino-2-(pent-4-en-1-yl)hept-6-enoic acid (stitching residue), C=CCCCC(CCCC=C)(N[*:1])C(=O)[*:2]; B5(3) = 2,2-bis(4-pentenyl)glycine (stitching residue), C=CCCCC(CCCC=C)(N[*:1])C(=O)[*:2]; Phe(2-Cl) = N[C@@H](Cc1ccccc1Cl)C(=O)O; Bta = N[C@@H](Cc1csc2ccccc12)C(=O)O; αAllylPro = C=CC[C@@]1(C(=O)O)CCCN1; tBuAla = CC(C)(C)C[C@H](N)C(=O)O; 3Thi = N[C@@H](Cc1ccsc1)C(=O)O; Cha = N[C@@H](CC1CCCCC1)C(=O)O; S8 = C=CCCCCCC[C@](C)(N)C(=O)O; Nle = CCCC[C@H](N)C(=O)O
RESULT_TYPE: IC50 (µM)
Numeric only. Scale: µM

See these solved cases before continuing.
{"BINDER": "Ac-[αAllylPro]D[Nle][B5(5)]DEAAFL[S8]F[Bta]Q-NH2 (staple 1-4, 4-11) [I-1523: Ac-PL3-Asp-nLeu-B5-Asp-Glu-Ala-Ala-Phe-Leu-S8-Phe-BztA-Gln-NH2]", "VALUE": 0.029}
{"BINDER": "Ac-[αAllylPro]DN[B5(5)]DDAAFL[PyrS2″][3Thi][Bta]Q-NH2 (staple 1-4, 4-11) [I-1517: Ac-PL3-Asp-Asn-B5-Asp-Asp-Ala-Ala-Phe-Leu-PyrS2-3Thi-BztA-Gln-NH2]", "VALUE": 0.032}
{"BINDER": "Ac-[αAllylPro]D[tBuAla][B5(3)]DQAAFN[PyrS2″][3Thi][Bta]H-NH2 (staple 1-4, 4-11) [I-839]", "VALUE": 0.007}
{"BINDER": "Ac-[αAllylPro]D[tBuAla][B5(3)]DDAAFL[S8][Phe(2-Cl)][Bta][dT]-NH2 (staple 1-4, 4-11) [I-1097]", "VALUE": 0.04}

Documented IC50 of Ac-[αAllylPro]D[Cha][B5(3)]DDAAF[Cha][PyrS2″][Phe(2-Cl)][Bta]Q-NH2 (staple 1-4, 4-11) [I-1107] : 0.018
